Exercise: for every item that follows, state its recorded remaining at 240 h.
# experimentDescription: Chemical stability of compound in PBS buffer at pH 7.4 measured after 10 days by HPLC analysis
# Assay type: physicochemical
# details: time 10 day, read-out: Stability

# input molecule: "COc1cccc(CC(=O)N[C@@H](Cc2ccc(C(F)(F)F)cc2)Cc2nnn[nH]2)c1" ; wanted: its remaining at 240 h > 95%

# input molecule: "O=C(Cc1cncc(Br)c1)N[C@@H](Cc1ccc(C(F)(F)F)cc1)Cc1nnn[nH]1" ; wanted: its remaining at 240 h > 95%

Ref: ChEMBL document CHEMBL5380873
